- procedure-details: Tmax in Han Wistar rat at 20 ug/kg, iv by LC-MS/MS analysis
- Format: ADME, organism-based
- reported-conditions: in vivo, 0.02 mg/kg
Non-standard residues stand in square brackets, D forms with d. Residues, ends and D or L forms follow the SMILES beside them. *: point of attachment. Dolaproine = CO[C@@H]([C@@H]1CCCN1)[C@@H](C)C(=O)O; Dil = CC[C@H](C)[C@H](NC)[C@@H](CC(=O)O)OC; Doe = c1ccc(C[C@H](N*)c2nccs2)cc1; Aib = CC(C)(N)C(=O)O
metric: Tmax (min)

[
  {
    "molecule": "CC[C@H](C)[C@@H]([C@@H](CC(=O)N1CCC[C@H]1[C@H](OC)[C@@H](C)C(=O)N[C@@H](Cc1ccccc1)c1nccs1)OC)N(C)C(=O)[C@@H](NC(=O)C(C)(C)N)C(C)C (H-[Aib]V[Dil][Dolaproine]-Doe)",
    "metric": "Tmax",
    "endpoint-result": 8.4
  }
]

====

- procedure-details: Drug recovery in Han Wistar rat bile at 36 ug/kg, iv bolus dose
- Assay type: ADME, organism-based
- reported-conditions: 0.036 mg/kg, read-out: Drug recovery
Non-standard residues stand in square brackets, D forms with d. Residues, ends and D or L forms follow the SMILES beside them. *: point of attachment. Dolaproine = CO[C@@H]([C@@H]1CCCN1)[C@@H](C)C(=O)O; Dil = CC[C@H](C)[C@H](NC)[C@@H](CC(=O)O)OC; Doe = c1ccc(C[C@H](N*)c2nccs2)cc1; Aib = CC(C)(N)C(=O)O

[
  {
    "compound": "CC[C@H](C)[C@@H]([C@@H](CC(=O)N1CCC[C@H]1[C@H](OC)[C@@H](C)C(=O)N[C@@H](Cc1ccccc1)c1nccs1)OC)N(C)C(=O)[C@@H](NC(=O)C(C)(C)N)C(C)C (H-[Aib]V[Dil][Dolaproine]-Doe)",
    "dose excreted, %": 4
  }
]

====

- procedure-details: Volume of distribution at steady state in Han Wistar rat at 20 ug/kg, iv by LC-MS/MS analysis
- Assay type: ADME, organism-based
- reported-conditions: in vivo, 0.02 mg/kg, read-out: Vdss
Non-standard residues stand in square brackets, D forms with d. Residues, ends and D or L forms follow the SMILES beside them. *: point of attachment. Dolaproine = CO[C@@H]([C@@H]1CCCN1)[C@@H](C)C(=O)O; Dil = CC[C@H](C)[C@H](NC)[C@@H](CC(=O)O)OC; Doe = c1ccc(C[C@H](N*)c2nccs2)cc1; Aib = CC(C)(N)C(=O)O

[
  {
    "compound": "CC[C@H](C)[C@@H]([C@@H](CC(=O)N1CCC[C@H]1[C@H](OC)[C@@H](C)C(=O)N[C@@H](Cc1ccccc1)c1nccs1)OC)N(C)C(=O)[C@@H](NC(=O)C(C)(C)N)C(C)C (H-[Aib]V[Dil][Dolaproine]-Doe)",
    "Vd, L/kg": 14.7
  }
]

====

- procedure-details: Cmax in Han Wistar rat at 20 ug/kg, iv by LC-MS/MS analysis
- Assay type: ADME, organism-based
- Set-up: dose 20 ug/kg, route intravenous
- reported-conditions: in vivo, 0.02 mg/kg
Non-standard residues stand in square brackets, D forms with d. Residues, ends and D or L forms follow the SMILES beside them. *: point of attachment. Dolaproine = CO[C@@H]([C@@H]1CCCN1)[C@@H](C)C(=O)O; Dil = CC[C@H](C)[C@H](NC)[C@@H](CC(=O)O)OC; Doe = c1ccc(C[C@H](N*)c2nccs2)cc1; Aib = CC(C)(N)C(=O)O
metric: Cmax (ng/mL)

[
  {
    "compound": "CC[C@H](C)[C@@H]([C@@H](CC(=O)N1CCC[C@H]1[C@H](OC)[C@@H](C)C(=O)N[C@@H](Cc1ccccc1)c1nccs1)OC)N(C)C(=O)[C@@H](NC(=O)C(C)(C)N)C(C)C (H-[Aib]V[Dil][Dolaproine]-Doe)",
    "metric": "Cmax",
    "endpoint-result": 19.4
  }
]

====

- procedure-details: Half life in Han Wistar rat at 20 ug/kg, iv by LC-MS/MS analysis
- Assay type: ADME, organism-based
- reported-conditions: in vivo, 0.02 mg/kg
Non-standard residues stand in square brackets, D forms with d. Residues, ends and D or L forms follow the SMILES beside them. *: point of attachment. Dolaproine = CO[C@@H]([C@@H]1CCCN1)[C@@H](C)C(=O)O; Dil = CC[C@H](C)[C@H](NC)[C@@H](CC(=O)O)OC; Doe = c1ccc(C[C@H](N*)c2nccs2)cc1; Aib = CC(C)(N)C(=O)O
metric: half-life (h)

[
  {
    "compound": "CC[C@H](C)[C@@H]([C@@H](CC(=O)N1CCC[C@H]1[C@H](OC)[C@@H](C)C(=O)N[C@@H](Cc1ccccc1)c1nccs1)OC)N(C)C(=O)[C@@H](NC(=O)C(C)(C)N)C(C)C (H-[Aib]V[Dil][Dolaproine]-Doe)",
    "endpoint-result": 5.85
  }
]

====

- procedure-details: AUCt in Han Wistar rat at 20 ug/kg, iv by LC-MS/MS analysis
- Format: ADME, organism-based
- reported-conditions: plasma, 0.02 mg/kg
Non-standard residues stand in square brackets, D forms with d. Residues, ends and D or L forms follow the SMILES beside them. *: point of attachment. Dolaproine = CO[C@@H]([C@@H]1CCCN1)[C@@H](C)C(=O)O; Dil = CC[C@H](C)[C@H](NC)[C@@H](CC(=O)O)OC; Doe = c1ccc(C[C@H](N*)c2nccs2)cc1; Aib = CC(C)(N)C(=O)O

[
  {
    "compound": "CC[C@H](C)[C@@H]([C@@H](CC(=O)N1CCC[C@H]1[C@H](OC)[C@@H](C)C(=O)N[C@@H](Cc1ccccc1)c1nccs1)OC)N(C)C(=O)[C@@H](NC(=O)C(C)(C)N)C(C)C (H-[Aib]V[Dil][Dolaproine]-Doe)",
    "units-label": "ng·h/mL",
    "AUC(0-t)": 4.51
  }
]

Value source: ChEMBL document CHEMBL3352038
